Measured pIC50 accompanies every entry in the list below.
tested.on: p38α (Homo sapiens)
Construct: p38 MAP Kinases are recombinant human full-length proteins with an amino-terminal GST fusion; GST (N); purchased Upstate Biotechnology Inc; host or cells: E. coli
protocol.summary: p38 MAP Kinase assay: inhibition of ATF2 phosphorylation, ELISA
Format: biochemical
assay.conditions: ATF2 phosphorylation; read-out: [ENZ] P38 ALPHA, IC50, ELISA
FYI, pIC50 means -log10 of a concentration in mol per litre.

smiles.representation | parameter | value.reported
COCCN(C)c1nccc(Oc2ccc(NC(=O)c3cc(F)cc(N4CCCCC4)c3)c3ccccc23)n1 | pIC50 | 7.54

[Q] Quick one: pIC50 for "O=C(Nc1ccc(Oc2ccnc(NCCO)n2)c2ccccc12)c1cc(F)cc(N2CCOCC2)c1" ?
[A] 7.50

[Q] Repeat with "O=C(Nc1ccc(Oc2ccnc(NCC3OCCO3)n2)c2ccccc12)c1cc(F)cc(N2CCCCC2)c1"
[A] 8.77

###

parameter: melting point

Record excerpt, results attached:
compound | value.reported
CN1CCCC1CCNc1nccc(Oc2ccc(NC(=O)c3cc(F)cc(N4CCOCC4)c3)c3ccccc23)n1 (stereo not shown) [Compound B344] | 100 to 101 °C
O=C(Nc1ccc(Oc2ccnc(NCCN3CCCC3)n2)c2ccccc12)c1cc(F)cc(N2CCCCC2)c1 [Compound B389] | 92 to 94 °C
CSc1nccc(-c2ccc(NC(=O)c3cc(F)cc(N4CCOCC4)c3)c3ccccc23)n1 [Compound B270] | 135 to 138 °C
O=C(Nc1ccc(OCCN2CCOCC2)c2ccccc12)c1cc(F)cc(OC2CCOCC2)c1 [Compound B226] | 75 to 77 °C
O=C1CN(c2nccc(Oc3ccc(NC(=O)c4cc(F)cc(N5CCCCC5)c4)c4ccccc34)n2)CCN1 [Compound B421] | 140 to 142 °C
CN(C)C1CCN(c2nccc(Oc3ccc(NC(=O)c4cc(F)cc(N5CCOCC5)c4)c4ccccc34)n2)C1 (stereo not shown) [Compound B365] | 106 to 108 °C

Would you kindly look at the next entry?
[Q] Value lookup for melting point; key = O=C(Nc1ccc(OCCN2CCOCC2)c2ccccc12)c1cc(F)cc(N2CCCCC2)c1 [Compound B66]
[A] 150 to 151 °C

###

Reported IC50 by item:
tested.on: p38α (Homo sapiens, UniProt Q16539)
Construct: p38 MAP Kinases are recombinant human full-length proteins with an amino-terminal GST fusion; GST (N)
Sequence (Q16539 whole entry, the tested form may be a part): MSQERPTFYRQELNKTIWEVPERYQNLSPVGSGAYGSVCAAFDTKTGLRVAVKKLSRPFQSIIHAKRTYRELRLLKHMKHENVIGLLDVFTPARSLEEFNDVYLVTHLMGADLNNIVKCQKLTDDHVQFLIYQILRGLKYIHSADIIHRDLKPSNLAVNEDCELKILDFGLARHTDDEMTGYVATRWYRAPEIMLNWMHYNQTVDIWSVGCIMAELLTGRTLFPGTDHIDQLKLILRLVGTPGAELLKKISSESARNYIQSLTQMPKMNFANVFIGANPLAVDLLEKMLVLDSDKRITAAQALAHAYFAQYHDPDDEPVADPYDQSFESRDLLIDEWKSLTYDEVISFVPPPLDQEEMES
protocol.summary: p38 MAP Kinase assay: inhibition of ATF2 phosphorylation, ELISA
assay.conditions: ATF2 phosphorylation; read-out: [ENZ] P38 ALPHA, IC50, ELISA

[Q] Entry CC1CC(C)CN(c2nccc(Oc3ccc(NC(=O)c4cc(F)cc(N5CCCCC5)c4)c4ccccc34)n2)C1 (stereo not drawn) : reported IC50 = ?
[A] 207 nM

[Q] What do we get for "CN1CCN(c2cccc(C(=O)Nc3ccc(OCCN4CCOCC4)c4ccccc34)c2)CC1" ?
[A] > 10000 nM

[Q] What about this compound? "CC(C)CNc1nccc(Oc2ccc(NC(=O)c3cc(F)cc(N4CCOCC4)c3)c3ccccc23)n1"
[A] 7.2 nM

[Q] Then "CSc1nccc(Oc2ccc(NC(=O)c3cc(F)cc(N4CCC(C)CC4)c3)c3ccccc23)n1" ?
[A] 587 nM

[Q] Next record, please: "CN(C)[C@@H]1CCN(c2nccc(Oc3ccc(NC(=O)c4cc(F)cc(N5CCCCC5)c4)c4ccccc34)n2)C1"
[A] 30.4 nM

[Q] One more compound: "O=C(Nc1ccc(OCc2ccncc2)c2ccccc12)c1cc(F)cc(OC2CCCCC2)c1"
[A] 125 nM

[Q] What about this compound? "O=C(Nc1ccc(Oc2ccnc(NCCN3CCCC3)n2)c2ccccc12)c1cc(F)cc(N2CCCCC2)c1"
[A] 2.1 nM

[Q] Input "O=C(Nc1ccc(OCCN2CCOCC2)c2ccccc12)c1ccc(N2CCOCC2)nc1"
[A] > 10000 nM

[Q] Try this compound too: Cc1cc(C(=O)Nc2ccc(OCCN3CCOCC3)c3ccccc23)cc(N2CCCC2C)n1 (stereo not drawn)
[A] 745 nM

###

tested.on: p38α (Homo sapiens, UniProt Q16539)
Construct: p38 MAP Kinases are recombinant human full-length proteins with an amino-terminal GST fusion; GST (N)
protocol.summary: p38 MAP Kinase assay: inhibition of ATF2 phosphorylation, ELISA
assay.conditions: ATF2 phosphorylation; read-out: [ENZ] P38 ALPHA, IC50, ELISA
Measured log10 IC50 accompanies every entry in the list below.
Please note: log10 values; quantity IC50; unit nM.

Sample answers from the record:
molecule | parameter | value.reported
O=C(Nc1ccc(Oc2ccnc(N3CCOCC3)n2)c2ccccc12)c1cc(F)cc(N2CCOCC2)c1 | log10 IC50 | 1.67
CC(C)Nc1nccc(Oc2ccc(NC(=O)c3cc(F)cc(N4CCCCC4)c3)c3ccccc23)n1 | log10 IC50 | 0.78

[Q] Any idea what log10 IC50 was measured for "O=C(Nc1ccc(Oc2ccnc(NCCN3CCCCC3)n2)c2ccccc12)c1cc(F)cc(N2CCOCC2)c1" ?
[A] 1.18

[Q] Entry "O=C(Nc1ccc(OCCN2CCC(O)CC2)c2ccccc12)c1cc(F)cc(N2CCCCC2)c1" please
[A] 3.43

[Q] Please answer likewise for "CCOC(=O)C1CCN(CCOc2ccc(NC(=O)c3cc(F)cc(N4CCCCC4)c3)c3ccccc23)CC1"
[A] 3.26

[Q] Please do the same for "CC1CCN(c2cc(F)cc(C(=O)Nc3ccc(OCCN4CCNC(=O)C4)c4ccccc34)c2)CC1" as well.
[A] 3.15

[Q] Then this molecule: "N#Cc1ccc(C(=O)Nc2ccc(OCCN3CCOCC3)c3ccccc23)cc1"
[A] 3.71

###

tested.on: p38α (Homo sapiens, UniProt Q16539)
Construct: p38 MAP Kinases are recombinant human full-length proteins with an amino-terminal GST fusion; GST (N); purchased Upstate Biotechnology Inc; host or cells: E. coli
protocol.summary: p38 MAP Kinase assay: inhibition of ATF2 phosphorylation, ELISA
Type: biochemical
assay.conditions: ATF2 phosphorylation; read-out: [ENZ] P38 ALPHA, IC50, ELISA
parameter: pIC50
FYI, pIC50 means -log10 of a concentration in mol per litre.

smiles.representation | parameter | value.reported
O=C(Nc1ccc(OCCN2CCOCC2)c2ccccc12)c1cccc(-c2ccc(F)cc2)c1 | pIC50 | 6.11
COc1cccc(C(=O)Nc2ccc(OCCN3CCOCC3)c3ccccc23)c1 | pIC50 | 5.11
CS(=O)(=O)CCNc1nccc(Oc2ccc(NC(=O)c3cc(F)cc(N4CCCCC4)c3)c3ccccc23)n1 | pIC50 | 8.80
O=C(Nc1ccc(OCc2ccncc2)c2ccccc12)c1cc(F)cc(N2CCCCC2)c1 | pIC50 | 7.59

[Q] GET /values?readout=pIC50&item= "O=C(Nc1ccc(OCCN2CCOCC2)c2ccccc12)c1cccc(-c2ccccc2Cl)c1"
[A] 6.06

###

tested.on: p38α (Homo sapiens, UniProt Q16539)
Construct: p38 MAP Kinases are recombinant human full-length proteins with an amino-terminal GST fusion; GST (N); purchased Upstate Biotechnology Inc; host or cells: E. coli
protocol.summary: p38 MAP Kinase assay: inhibition of ATF2 phosphorylation, ELISA
Type: biochemical
assay.conditions: 10 uM; substrate ATF2; read-out: [ENZ] P38 ALPHA, PCT INH, ELISA (10 uM;ATF2) (Percent)
parameter: inhibition at 10 µM (%)
Provide the reading as a plain figure in %.

molecule | tested.on | units.symbol | inhibition at 10 µM
CC1CC(C)CN(c2cccc(C(=O)Nc3ccc(OCCN4CCOCC4)c4ccccc34)n2)C1 (centres unmarked) | p38α (Homo sapiens, UniProt Q16539) | % | 13

[Q] Give its inhibition at 10 µM value. Item: "CN1CCN(CCOc2ccc(NC(=O)c3ccnc(N4CCOCC4)c3)c3ccccc23)CC1"
[A] 19.5

[Q] Note, next up: "O=C(Nc1ccc(OCCN2CCOCC2)c2ccccc12)c1cccc(N2CCC(N3CCCC3)CC2)c1"
[A] 16

[Q] Consider next the molecule "COc1ccccc1-c1cccc(C(=O)Nc2ccc(OCCN3CCOCC3)c3ccccc23)c1" in the same way.
[A] 78

[Q] Now the molecule "COc1cccc(-c2cccc(C(=O)Nc3ccc(OCCN4CCOCC4)c4ccccc34)c2)c1"
[A] 78

[Q] Cool, now "C[C@@H]1CN(CCOc2ccc(NC(=O)c3ccc(-n4cccn4)cc3)c3ccccc23)C[C@H](C)O1"
[A] 16.5

[Q] And "CC(=O)N1CCN(CCCOc2ccc(NC(=O)c3cc(F)cc(N4CCCCC4)c3)c3ccccc23)CC1" ?
[A] 84

[Q] Continue with "O=C(Nc1ccc(OCCN2CCOCC2)c2ccccc12)c1cccc(N2CCCCCCC2)n1"
[A] 20
